Measured melting point values are reported for all entries that follow.
readout_type: melting point

CC(=O)NCC1CC1c1cccc2nc(C(F)(F)F)cn12 (stereo not drawn); 135 to 137 °C
O=C(O)CN1CC(c2ccc(Cl)cc2)CC1=O (stereo not drawn); 142 to 143 °C
Cn1nnc2c(N3CCOCC3)nc(-c3ccc(NC(=O)Nc4cccs4)cc3)nc21; 182 °C

---

Measured melting point values are reported for all entries that follow.
readout_type: melting point

NS(=O)(=O)c1ccc(-n2nc(CCCNC(=O)Nc3ccccc3)cc2-c2ccccc2)cc1; 171 to 172 °C
COc1cc(CC(C)(C)C(=O)O)cc2c1OC(C)(C)C2; 88 to 89 °C
COc1ccc(C(=NOC(C)=O)c2ccccc2F)c(O)c1Cl; 125 to 128 °C
Cc1cccc(C)c1NC(=O)c1ccc(O)cc1; 232 to 234 °C
CN(c1cc(OC(F)(F)F)cc2cc(C3=NCC(CC(=O)O)S3)[nH]c12)S(=O)(=O)c1cccs1 (stereo unspecified); 225 to 227 °C
CC#CC(Cc1cccnc1)(C(=O)O)S(=O)(=O)c1ccc(OC)cc1 (stereo unspecified); 119 to 121 °C

---

readout_type: melting point

O=C(Nc1ccc(C(F)(F)F)cc1)C1=NN(c2ccccc2)CC1c1ccc(F)cc1 (stereo not given); 184 °C
O=C(c1cccn1N1C(=O)c2ccccc2C1=O)C1CC1; 150 to 152 °C
Cc1nc(NC(=O)C2c3ccccc3Oc3ccccc32)no1; 186 °C
CCOc1ccccc1C1(CC(=O)N2CCN(c3ccncc3)CC2)C(=O)N(S(=O)(=O)c2ccc(OC)cc2OC)c2ccc(Cl)cc21 (stereo not given); 225 °C
N#Cc1nc(O)c(-c2cc(O)c(O)c([N+](=O)[O-])c2)nc1C#N; > 300 °C

---

Measured melting point values are reported for all entries that follow.
readout_type: melting point

COCc1c[nH]c2c([N+](=O)[O-])cccc2c1=O; > 250 °C
CCOCc1nc2c(N)nc3cc(OCc4ccc(C)cc4)ccc3c2n1CC(C)C; 209 to 210 °C
CCOC(=O)/C=C/c1ccc(O)cc1OCc1ccccc1; 131 to 133 °C

---

Measured melting point values are reported for all entries that follow.
readout_type: melting point

CN(CC(=O)O)C(=O)CCSC(=O)c1ccccc1; 139 to 140 °C
CCOC(=O)CCCN1CCn2nc(C(=O)O)cc2C1=O; 175 °C
CC(C)c1ccc(-c2cc(-c3cccc(C(=O)O)c3)cs2)cc1; 208 to 209 °C
CN1C(=O)CCC2c3ccc(Cl)cc3CCC21 (configuration not stated); 82 °C
COCCOC(=O)c1c(-c2ccncc2)[nH]c(-c2ccncc2)c1C; 174 to 177 °C
O=C(O)C(O)N1C(=O)CCN1c1ccc(Cl)cc1 (configuration not stated); 149 to 151 °C
Oc1cccc2c(Oc3ccccc3)cccc12; 82 to 83 °C
c1ccc(-c2nc(COc3cccc(Cc4nnn[nH]4)c3)cs2)cc1; 160 to 161 °C
COC(=O)c1c(C)nc2cc(OC)c(OC)cc2c1-c1ccnc(Cl)c1; 145 to 147 °C
N#CCN1C(=O)N(c2ccc(C#N)c(C(F)(F)F)c2)C(=O)C12CCOCC2; 210 to 211 °C
Cc1cc(-n2ccnc2)c2cccc(OCc3c(Cl)ccc(S(=O)(=O)N4CCC[C@H]4C(=O)N4CCN(Cc5cccnc5)CC4)c3Cl)c2n1; 102 °C
O=C1CC(c2cccc(-n3ccnc3)c2)=Nc2ccc(-c3ccccc3)cc2N1; 201 to 205 °C
C#CC(C)(O)C1CCC2C3CCC4CC(F)CCC4(C)C3CCC21C (configuration not stated); 230 to 231 °C
CC(=O)OCC(=O)Nc1ccc(-c2nc(C(=O)Nc3nccs3)c(-c3ccc(C)cc3)[nH]2)cc1; > 250 °C
O=C1c2ccccc2C(=O)N1CC(=O)N1c2ccccc2N(Cc2ccncc2)C(=O)[C@H]2CCC[C@H]21 (relative stereo); 211 to 212 °C
CC(C)(C)OC(=O)Nc1cc(N2CCC(OCCO)CC2)c(I)cc1[N+](=O)[O-]; 64 to 65 °C
COc1cc2c(cc1OC)C(c1ccccc1)N(C(=O)NCCN1CCCCC1)CC2 (configuration not stated); 101 to 102 °C

---

Measured melting point values are reported for all entries that follow.
readout_type: melting point

NC1CCN(c2ncc3ncnc(Nc4ccc(F)c(Cl)c4)c3n2)C1 (centres undefined); 174 to 176 °C
ClCCCOc1ccc(-n2ccnc2)cc1; 53 to 55 °C
CSc1ccc2c(O)c(CS(C)(=O)=O)cnc2c1; 290 to 292 °C
O=C(O)c1ccc(OCCCc2ccccc2)cc1; 165 to 166 °C
O=C(O)CC(Br)C(Br)c1ccc(Cl)cc1Cl (centres undefined); 184 to 185 °C
O=C(c1[nH]ncc1-c1csc(Nc2ncccn2)n1)C1CC1; 244 °C
CCC12CCC3C4=C(CC(OC)=CC4)C(C)CC3C1CCC2O (centres undefined); 176 to 182 °C
COC(=O)CN1CSC=C(N2C(=O)c3ccccc3C2=O)C1=O; 181 to 183 °C
Fc1c(OCc2ccccc2)ccc(-c2ncc(Br)cn2)c1F; 138 °C

---

readout_type: melting point

O=C(c1ccccc1)N1CCNc2ncccc21; 166 to 168 °C
CN(CCCO)C(=O)c1cc2ccccc2c(-c2ccccc2I)n1; 51 to 52 °C
N#CCCNC(=O)C1=CC(CF)(CF)Oc2ccc(Cl)cc21; 134 to 136 °C

---

Measured melting point values are reported for all entries that follow.
readout_type: melting point

Cc1cccc2cc3c(=O)[nH]cc(C(=O)O)c3nc12; > 300 °C
CCN(Cc1ccccc1)C(=O)c1c(-c2ccncc2)c(-c2ccc(F)cc2)nn1CC; 115 to 117 °C
Cc1ccc2c(Sc3ccc(Cl)cc3)c(C(=O)O)[nH]c2c1; 228 to 229 °C

---

Measured melting point values are reported for all entries that follow.
readout_type: melting point

Cn1c(Nc2c(Cl)ccc(CNC(=O)C(C)(C)C)c2Cl)nc2cc(C(=O)N[C@H]3CC[C@H](C(F)(F)F)CC3)c(N3CCC(C(F)(F)F)CC3)nc21; 185 to 186 °C
N#CC1=C(C2CC2)Nc2n[nH]cc2C1c1cccc2nocc12 (stereo unspecified); 248 °C
CCN(CC)CCCNc1nc2ccccc2n(-c2ccc(Cl)cc2)c1=O; 123 to 124 °C
N#Cc1ccc(C=C2CCNC2=O)cc1; 260 °C
Cc1c(NC(=O)c2cc3c(s2)CCCC3)cccc1-c1cn(C)c(=O)c(Nc2ccc([C@@H](C(=O)N(C)C)N(C)C(C)C)cc2)n1; 133 to 134 °C
Nc1ccc(-n2ccc(=O)cc2)cc1N; 257 to 260 °C
CSC(=NC#N)NCCCOc1cccc(CN2CCCC2)c1; 107 to 108 °C
CCc1c(O)c(C(C)=O)cc2c1OC(C)(C)CC2C (stereo unspecified); 104 to 106 °C
NCC(COC(C(F)(F)F)(C(F)(F)F)C(F)(F)F)(COC(C(F)(F)F)(C(F)(F)F)C(F)(F)F)C(=O)O; 182 to 184 °C
CC(C)/[N+]([O-])=C/c1ccccc1O; 36 to 39 °C
CSc1nn2c(N)c3c(nc2c1S(=O)(=O)c1ccccc1)CCC3; > 230 °C
CNc1n[nH]c(=S)n1C; 213 °C
COCCCNc1cccc(Oc2ccc(-c3cn(C4CCOCC4)c4ncnc(N)c34)cc2)c1C#N; 205 to 207 °C
CCON=C(C)c1ccc2c(c1)ncn2-c1cccc(C2=CCCN(C)C2)c1; 138 to 143 °C
NS(=O)(=O)c1ccccc1OC(F)(F)C(F)(F)F; 145 to 146 °C
O=c1[nH]c2cc(Cl)cc(Cl)c2c(=O)n1Cc1ccccc1F; 275 to 278 °C
c1ccc2c(c1)CCCC1C2=NNC1c1ccncc1 (stereo unspecified); 152 to 157 °C
O=C1c2ccccc2C(=O)N1[C@@H]1C[C@H](O)[C@@H](O)[C@H]1O (racemic); 175 to 176 °C
O=S(=O)(c1ccc(F)cc1)N1CCC(Nc2nc(OCC(F)(F)F)nc(-c3ccc(F)cc3)n2)CC1; 183 to 185 °C
CC(=O)Nc1cc2c(cc1O)CCN(Cc1ccccc1)CC2c1ccccc1 (stereo unspecified); 180 °C
CONS(=O)(=O)c1ccc(Cl)cc1; 81 to 82.5 °C
O=C1Cc2cc(F)c(Cl)cc2N1; 196 to 206 °C
CC(C)OC(=O)c1cc(-n2c(=O)[nH]c3c(c2=O)CCCC3)c(F)cc1Cl; 203 to 205 °C
CC(C)(C)NS(=O)(=O)c1ccc(N)cc1; 127 °C
COC(=N)CCSCc1csc(N=C(N)N)n1; 126 °C
CO[C@]12C[C@@H](CN3CCC(O)(c4ccc(Cl)cc4)CC3)CN(C)[C@@H]1Cc1c[nH]c3cccc2c13; 144 to 148 °C
Cc1nc2[nH]c(=O)[nH]c2cc1-c1ccc(N)cc1; 277 to 283 °C
Cc1cc(C)cc(NC(=O)c2cc(Br)ccc2O)c1; 188 to 190 °C
N#CC(C#N)=C1c2ccccc2-c2c(C(=O)OCCc3ccccc3)cccc21; 115 to 117 °C
N#CC(Cc1cccc2c1OCO2)C(=O)O (stereo unspecified); 118 °C
CN1CCN(C2=Cc3cc(Cl)ccc3C(=CC#N)c3ccccc32)CC1; 196 to 198 °C
